This collection of values is drawn from ChEMBL document CHEMBL4011581.

ASSAY_TARGET: UniProt:O95342
ASSAY_NAME: Inhibition of human BSEP expressed in fall armyworm sf9 cell plasma membrane vesicles assessed as reduction in vesicle-associated [3H]-taurocholate transport preincubated for 10 mins prior to ATP addition measured after 15 mins in presence of [3H]-taurocholate by topcount based membrane vesicle transport assay
Type: ADME
Catalogue of IC50 values

Solved cases (5 shown):
COMPOUND	VALUE_REPORTED
CC(C)N(CCC(C(N)=O)(c1ccccc1)c1ccccn1)C(C)C (centres undefined) [DISOPYRAMIDE]	> 135 µM
CC(CN1c2ccccc2Sc2ccccc21)N(C)C (centres undefined)	> 135 µM
CCN1CCC[C@H]1CNC(=O)c1c(OC)ccc(Br)c1OC [REMOXIPRIDE]	> 135 µM
CN(CCOc1ccc(CC2SC(=O)NC2=O)cc1)c1ccccn1 (centres undefined)	4.4 µM
CN1CCN(C2=Nc3cc(Cl)ccc3Nc3ccccc32)CC1	> 135 µM

Pending compound:
The compound listed as `CCn1cc(C(=O)O)c(=O)c2cc(F)c(N3CCN(C)CC3)cc21` shows IC50 equal to > 135 µM

---

Reported IC50 by item:
ASSAY_TARGET: Bile salt export pump (Homo sapiens)
ASSAY_NAME: Inhibition of human BSEP expressed in fall armyworm sf9 cell plasma membrane vesicles assessed as reduction in vesicle-associated [3H]-taurocholate transport preincubated for 10 mins prior to ATP addition measured after 15 mins in presence of [3H]-taurocholate by topcount based membrane vesicle transport assay
Type: ADME

MOLECULE	MEASURE	VALUE_REPORTED
CN(C)CCC=C1c2ccccc2CCc2ccccc21	IC50	> 135 µM
CC[C@@]1(O)C(=O)OCc2c1cc1n(c2=O)Cc2cc3ccccc3nc2-1	IC50	> 135 µM
COc1ccccc1Oc1c(NS(=O)(=O)c2ccc(C(C)(C)C)cc2)nc(-c2ncccn2)nc1OCCO	IC50	22 µM

The value of IC50 measured for the molecule `CC(=O)CCCCn1c(=O)c2c(ncn2C)n(C)c1=O` turned out to be > 135 µM

Recorded result, `COC[C@H]1OC(=O)c2coc3c2[C@@]1(C)C1=C(C3=O)[C@@H]2CCC(=O)[C@@]2(C)C[C@H]1OC(C)=O` , IC50: 13.6 µM

In plain terms, S=C=Nc1cccc2ccccc12 [1-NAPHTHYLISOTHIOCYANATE] has a documented IC50 of 60 to 75 µM

Per the record, `C=C[C@H]1C[N@@]2CC[C@H]1C[C@@H]2[C@@H](O)c1ccnc2ccc(OC)cc12` has IC50 of > 135 µM

Entry under test: `COC(=O)[C@H]1[C@H]2C[C@@H]3c4[nH]c5cc(OC)ccc5c4CCN3C[C@H]2C[C@@H](OC(=O)c2cc(OC)c(OC)c(OC)c2)[C@@H]1OC` . Its IC50 was 8.4 µM

Recorded result, `O=C(O)CCNC(=O)c1ccccc1` , IC50: > 135 µM

// sample `OCCN1CCN(CCCN2c3ccccc3Sc3ccc(Cl)cc32)CC1` , its IC50 was > 135 µM

So for `CC[C@H]1CN2CCc3cc(OC)c(OC)cc3[C@@H]2C[C@@H]1C[C@H]1NCCc2cc(OC)c(OC)cc21` , the logged IC50 turned out to be > 135 µM

Consider `Nc1c2c(nc3ccccc13)CCCC2` . Its measured IC50 is > 135 µM

Lab book: IC50 of `Oc1ccc2c(c1)[C@@]13CCCC[C@@]1(O)[C@@H](C2)N(CC1CCC1)CC3` noted as > 135 µM

Reported IC50 of CCC1=C(C)CN(C(=O)NCCc2ccc(S(=O)(=O)NC(=O)N[C@H]3CC[C@H](C)CC3)cc2)C1=O [GLIMEPIRIDE] : 15.7 µM

The reported value for CC(C)NCC(O)c1ccc(NS(C)(=O)=O)cc1 (configuration not stated) in terms of IC50 is > 135 µM

Measured IC50 of `CN1CC[C@]23c4c5ccc(O)c4O[C@H]2[C@@H](O)C=C[C@H]3[C@H]1C5` : > 135 µM

Record `COc1ccc(Cl)cc1[C@]1(F)C(=O)Nc2cc(C(F)(F)F)ccc21` . Reported IC50: > 135 µM

// IC50 lookup, molecule = `CNCCC=C1c2ccccc2CCc2ccccc21` , result: > 135 µM

Record `CN1C(C(=O)Nc2ccccn2)=C(O)c2sccc2S1(=O)=O` , field IC50: > 135 µM

Entry under test: `O=c1[nH]cc(F)c(=O)[nH]1` . Its IC50 was > 135 µM

Given item `C=CC1=C(C(=O)O)N2C(=O)[C@@H](NC(=O)/C(=N\OCC(=O)O)c3csc(N)n3)[C@H]2SC1` , the value recorded as its IC50 is > 135 µM

---

ASSAY_TARGET: Bile salt export pump (Homo sapiens, UniProt O95342)
Sequence (O95342 whole entry): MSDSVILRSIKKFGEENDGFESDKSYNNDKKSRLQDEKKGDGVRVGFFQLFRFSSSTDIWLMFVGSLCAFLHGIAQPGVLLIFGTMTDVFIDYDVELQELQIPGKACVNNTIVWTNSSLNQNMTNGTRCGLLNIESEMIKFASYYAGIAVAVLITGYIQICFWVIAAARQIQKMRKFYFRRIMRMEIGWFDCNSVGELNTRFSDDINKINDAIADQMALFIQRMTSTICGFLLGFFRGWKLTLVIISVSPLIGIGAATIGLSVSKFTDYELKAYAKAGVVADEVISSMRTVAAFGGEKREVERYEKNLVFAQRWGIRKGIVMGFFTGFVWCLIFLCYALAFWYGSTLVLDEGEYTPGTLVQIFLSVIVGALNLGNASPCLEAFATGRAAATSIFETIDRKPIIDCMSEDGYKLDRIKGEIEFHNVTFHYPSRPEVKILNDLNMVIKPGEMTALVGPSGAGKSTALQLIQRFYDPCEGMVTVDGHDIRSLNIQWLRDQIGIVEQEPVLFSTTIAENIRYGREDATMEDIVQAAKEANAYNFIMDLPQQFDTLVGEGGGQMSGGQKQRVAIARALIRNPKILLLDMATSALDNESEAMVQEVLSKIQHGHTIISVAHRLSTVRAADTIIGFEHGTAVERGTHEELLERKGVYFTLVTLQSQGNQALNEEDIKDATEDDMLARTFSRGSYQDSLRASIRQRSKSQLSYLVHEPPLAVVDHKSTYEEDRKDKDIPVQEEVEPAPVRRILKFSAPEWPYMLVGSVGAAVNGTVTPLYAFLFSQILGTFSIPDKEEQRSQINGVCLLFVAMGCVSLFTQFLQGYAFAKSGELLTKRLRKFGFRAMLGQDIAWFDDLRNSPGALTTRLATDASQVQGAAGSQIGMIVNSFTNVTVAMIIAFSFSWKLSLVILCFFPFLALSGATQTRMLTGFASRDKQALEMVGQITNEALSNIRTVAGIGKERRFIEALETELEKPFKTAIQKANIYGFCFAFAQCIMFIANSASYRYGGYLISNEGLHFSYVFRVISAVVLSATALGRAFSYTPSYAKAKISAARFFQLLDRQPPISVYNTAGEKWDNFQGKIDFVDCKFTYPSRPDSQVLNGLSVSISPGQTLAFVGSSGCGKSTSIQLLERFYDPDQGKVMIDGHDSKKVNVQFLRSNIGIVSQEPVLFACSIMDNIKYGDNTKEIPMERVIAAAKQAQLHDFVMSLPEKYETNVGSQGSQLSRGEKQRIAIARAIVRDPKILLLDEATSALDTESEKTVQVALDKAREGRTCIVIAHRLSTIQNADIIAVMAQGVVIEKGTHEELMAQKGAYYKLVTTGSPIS
ASSAY_NAME: Inhibition of human BSEP expressed in fall armyworm sf9 cell membrane vesicles assessed as reduction in ATP-dependent [3H]-taurocholic acid uptake at 100 uM preincubated for 30 mins prior to [3H]-taurocholic acid addition by liquid scintillation counting relative to control
Type: ADME
MEASURE: Imax

Reported Imax ( CC(C)C(=O)Nc1ccc([N+](=O)[O-])c(C(F)(F)F)c1 [FLUTAMIDE] ) = 40 to 50%

---

ASSAY_TARGET: Bile salt export pump (Homo sapiens)
ASSAY_NAME: Inhibition of human BSEP expressed in fall armyworm sf9 cell plasma membrane vesicles assessed as reduction in vesicle-associated [3H]-taurocholate transport preincubated for 10 mins prior to ATP addition measured after 15 mins in presence of [3H]-taurocholate by topcount based membrane vesicle transport assay
Type: ADME
MEASURE: IC50

Use the examples below as a reference point.
COMPOUND	ASSAY_TARGET	VALUE_REPORTED
CCCc1nc2c(C)cc(-c3nc4ccccc4n3C)cc2n1Cc1ccc(-c2ccccc2C(=O)O)cc1	Bile salt export pump (Homo sapiens)	16.2 µM
Cc1ccc(C)c(OCCCC(C)(C)C(=O)O)c1	Bile salt export pump (Homo sapiens)	> 135 µM
CCOC(=O)c1ncn2c1CN(C)C(=O)c1cc(F)ccc1-2	Bile salt export pump (Homo sapiens)	> 135 µM
Cc1cccc(C)c1OCC(=O)N[C@@H](Cc1ccccc1)[C@@H](O)C[C@H](Cc1ccccc1)NC(=O)[C@H](C(C)C)N1CCCNC1=O	Bile salt export pump (Homo sapiens)	17.3 µM
CNC1(c2ccccc2Cl)CCCCC1=O (centres undefined)	Bile salt export pump (Homo sapiens)	> 135 µM

Continue with the compound presented below.
The value of IC50 recorded for `Cn1c(=O)c2[nH]cnc2n(C)c1=O` when tested on Bile salt export pump (Homo sapiens) reads > 135 µM

---

Quick list: IC50 per entry.
ASSAY_TARGET: Bile salt export pump (Homo sapiens)
ASSAY_NAME: Inhibition of human BSEP expressed in fall armyworm sf9 cell plasma membrane vesicles assessed as reduction in vesicle-associated [3H]-taurocholate transport preincubated for 10 mins prior to ATP addition measured after 15 mins in presence of [3H]-taurocholate by topcount based membrane vesicle transport assay
Assay type: ADME
Lab book: enter the figure in µM, no units written.

COMPOUND	IC50 [µM]
CC1(COc2ccc(CC3SC(=O)NC3=O)cc2)CCCCC1 (stereo not given)	37.8

Sure, the documented IC50 for CCc1ccc(CCOc2ccc(CC3SC(=O)NC3=O)cc2)nc1 (stereo not given) is 0.4

---

Examples of molecules with documented pIC50 follow.
ASSAY_TARGET: Bile salt export pump (Homo sapiens)
ASSAY_NAME: Inhibition of human BSEP expressed in fall armyworm sf9 cell plasma membrane vesicles assessed as reduction in vesicle-associated [3H]-taurocholate transport preincubated for 10 mins prior to ATP addition measured after 15 mins in presence of [3H]-taurocholate by topcount based membrane vesicle transport assay
Type: ADME
pIC50: −log10 of the molar value.

Some solved entries appear below for comparison.
MOLECULE	ASSAY_TARGET	VALUE_REPORTED
CCCCNc1cc(C(=O)O)cc(S(N)(=O)=O)c1Oc1ccccc1 [BUMETANIDE]	Bile salt export pump (Homo sapiens)	< 3.87
COc1ccc2[nH]c([S+]([O-])Cc3ncc(C)c(OC)c3C)nc2c1 (stereo not drawn)	Bile salt export pump (Homo sapiens)	3.98 to 4.12
CC(C)(Oc1ccc(C2CC2(Cl)Cl)cc1)C(=O)O (stereo not drawn) [CIPROFIBRATE]	Bile salt export pump (Homo sapiens)	< 3.87
CC(C)Cc1ccc(C(C)C(=O)O)cc1 (stereo not drawn)	Bile salt export pump (Homo sapiens)	< 3.87
Clc1ccc2nsnc2c1NC1=NCCN1	Bile salt export pump (Homo sapiens)	< 3.87

Record `CO[C@H]1/C=C/O[C@@]2(C)Oc3c(C)c(O)c4c(c3C2=O)C2=NC3(CCN(CC(C)C)CC3)NC2=C(NC(=O)/C(C)=C\C=C\[C@H](C)[C@H](O)[C@@H](C)[C@@H](O)[C@@H](C)[C@H](OC(C)=O)[C@@H]1C)C4=O` / Bile salt export pump (Homo sapiens), pIC50 recorded as 4.57

Assay Bile salt export pump (Homo sapiens), sample Cc1c(C)c2c(c(C)c1O)CCC(C)(COc1ccc(CC3SC(=O)NC3=O)cc1)O2 (stereo not drawn) , pIC50 read: 5.23
